Reference source for all entries: paper PMC8560925

Biological target: TcdB-GTD (Clostridioides difficile, UniProt P18177)
Construct: C-terminal His-6 tagged TcdB-GTD (amino acids 1-546); His6 (C); made in house; host or cells: Escherichia coli One Shot BL21 Star (DE3)
Sequence (P18177 1-546 limits assumed): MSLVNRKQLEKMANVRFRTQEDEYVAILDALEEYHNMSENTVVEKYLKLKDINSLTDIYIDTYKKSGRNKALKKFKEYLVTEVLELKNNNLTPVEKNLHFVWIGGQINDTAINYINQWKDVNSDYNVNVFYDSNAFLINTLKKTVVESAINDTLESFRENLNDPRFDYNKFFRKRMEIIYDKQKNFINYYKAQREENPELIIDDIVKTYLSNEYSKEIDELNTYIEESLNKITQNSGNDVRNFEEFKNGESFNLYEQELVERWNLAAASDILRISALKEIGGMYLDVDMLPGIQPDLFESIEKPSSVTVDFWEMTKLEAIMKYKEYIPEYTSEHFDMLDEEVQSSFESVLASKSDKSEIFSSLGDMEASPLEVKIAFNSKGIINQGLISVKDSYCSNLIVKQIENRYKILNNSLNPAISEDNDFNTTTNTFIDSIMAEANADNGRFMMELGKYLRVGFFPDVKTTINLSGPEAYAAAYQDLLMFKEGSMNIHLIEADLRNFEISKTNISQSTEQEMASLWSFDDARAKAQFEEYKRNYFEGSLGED
Test: biochemical
Type: biochemical, Clostridium difficile
Conditions: Ki TcdB-GTD glucosyltransferase activity
Measured Metric: pKi
FYI, pKi means -log10 of a concentration in mol per litre.

Compound	pKi
OC[C@H]1CNC(O)[C@@H](O)[C@@H]1O (stereo partly drawn)	4.97

So what does the record say about pKi for O[C@H]1[C@H](O)[C@@H](O)CN2CC[C@H](O)[C@H]12 ?
3.17

For the compound OC[C@H]1CNC[C@@H](O)[C@@H]1O , what pKi is on record?
5.85

Which pKi is reported for this compound? O=C1O[C@H](CO)[C@@H](O)[C@H](O)[C@H]1O
3.36
